Sourced from ChEMBL document CHEMBL3988442

- target-entity: Sialic acid-binding Ig-like lectin 9 (Homo sapiens) (UniProt Q9Y336)
- Sequence (Q9Y336 whole entry): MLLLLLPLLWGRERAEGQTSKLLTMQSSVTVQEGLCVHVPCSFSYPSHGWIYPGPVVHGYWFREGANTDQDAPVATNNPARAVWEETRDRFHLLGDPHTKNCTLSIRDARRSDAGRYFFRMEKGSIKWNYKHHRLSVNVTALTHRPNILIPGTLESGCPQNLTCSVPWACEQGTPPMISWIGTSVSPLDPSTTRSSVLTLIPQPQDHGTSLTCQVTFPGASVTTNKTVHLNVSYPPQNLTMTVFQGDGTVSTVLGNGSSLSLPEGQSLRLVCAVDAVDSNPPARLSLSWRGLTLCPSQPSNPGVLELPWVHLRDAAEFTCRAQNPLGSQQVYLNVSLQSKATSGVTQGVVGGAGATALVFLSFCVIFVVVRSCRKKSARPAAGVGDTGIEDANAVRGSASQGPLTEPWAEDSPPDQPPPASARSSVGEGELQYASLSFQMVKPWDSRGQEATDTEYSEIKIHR
- method: Hs-Siglec9 ALPHAscreen SOP 20170721
- Parameters: scale not given: direction of the effect not stated beside the values
- measurement-context: 10 µM

molecule	Percent Effect
COCCO[C@@H]1CCN(C(=O)c2ccc(C)o2)[C@@H]1Cc1cnn(C)c1	-4.98%
CCOc1ccc(N(CC(=O)c2ccccc2)C2=NCCCCC2)cc1	2.61%
O=C(NCCN1CCOCC1)c1ccc(-n2ccc3ccccc32)s1	-1.07%
Cc1cnc2n(c1=O)CC(C(=O)Nc1ccccc1Cl)CS2 (centres undefined)	0.622%

* * *

- target-entity: Arginase-2, mitochondrial (Homo sapiens)
- method: in vitro enzyme assay to detect the production of urea directly proportional to the activity of Arginase II; also: in the data most compounds retested in dose-response had high values
- Format: functional
- Parameters: scale not given: direction of the effect not stated beside the values
- measurement-context: 33.3 µM

compound	unit-abbrev	Percent Effect
CN(C(=O)c1ccccc1Cl)C1CCN(c2ccccn2)CC1	%	-2.32
CN(C(=O)c1cccc(C(=O)NS(C)(=O)=O)c1)c1ccccc1	%	-24.8
Cc1cc(F)c(S(=O)(=O)NCCCN2CCC(O)CC2)cc1F	%	-24.8
Cc1cnc(CNc2c(F)cccc2-n2cccn2)o1	%	2.65
CCOCCn1nnc(C2(NC(=O)c3ccccc3)CCCC2)n1	%	4.17
CC(C)c1ccc(C(C)NC(=O)N2CCC(n3cncn3)CC2)cc1 (configuration not stated)	%	0
CCc1nnc2n1CCN(Cc1csc(-c3cnn(C)c3)n1)C2	%	-2.21
